Tested on: Staphylococcus aureus
Assay: Bacteriostatic activity against methicillin resistant Staphylococcus aureus ATCC 33591 by CLSI broth microdilution method
Format: functional
MEASURE: MIC (µg/mL)
Provide the reading as a plain figure in µg/mL.

CCCC(C)Nc1c(-c2c3ccccc3cc3ccccc23)nc2ccccn12 (stereo unspecified) ... 3.91
CC(C)(C)Nc1c(-c2c3ccccc3c(NCCCCCCCCN)c3ccccc23)nc2ccccn12 ... 15.6
CC(C)(C)Nc1c(-c2c3ccccc3cc3ccccc23)nc2ccccn12 ... 3.91
CCCCNc1c(-c2c3ccccc3cc3ccccc23)nc2ccccn12 ... 7.81
CC(C)Nc1c(-c2c3ccccc3cc3ccccc23)nc2ccccn12 ... 15.6

From here, focus on the item given below.
Answer with reported MIC of CC(C)(C)Nc1c(-c2cccc3ccccc23)nc2ccccn12
31.2
